ASSAY PROTOCOL: in vitro
Type: cell-based
CONDITION: human
QUANTITY KIND: viability at 24 h, 100 μg/mL

Exercise: Field request: viability at 24 h, 100 μg/mL | item: C#CC(=O)OC[C@]12CC[C@@H](C(=C)C)[C@@H]1[C@H]1CC[C@@H]3[C@@]4(C)CC[C@H](O)C(C)(C)[C@@H]4CC[C@@]3(C)[C@]1(C)CC2
Key: ≥ 50%

The measurements presented in this section are drawn from paper PMC11352258.
